Entries and their measured shrunken log2 fold change follow.
Tested on: Escherichia coli TOP10;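 also: peptides expressed intracellularly from a pBAD plasmid library in pooled LB shake-flask culture, induced with 0.3% L-arabinose, DNA abundance read by NGS, three biological replicates, DESeq2 with apeglm shrinkage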
Experiment: shrunken log2 fold change of peptide-encoding DNA abundance (4.5 h post-induction vs induction); higher = less antimicrobial activity (less host growth inhibition)
Settings: time post-induction: 4.5 h; library: site-saturation at positions 5, 18, 19, 20
measurement.type: shrunken log2 fold change

{"columns": ["sequence.entry", "number"],
 "data": [
  ["RRIRPRPPRLPRPRPRPLYQPRP", -0.0164],
  ["RRIRCRPPRLPRPRPRPRFKPRP", -0.00257],
  ["RRIRHRPPRLPRPRPRPIHYPRP", -0.0138],
  ["RRIRWRPPRLPRPRPRPDVCPRP", -0.0101],
  ["RRIRDRPPRLPRPRPRPAGYPRP", 0.528],
  ["RRIRLRPPRLPRPRPRPVGMPRP", -0.0033],
  ["RRIRSRPPRLPRPRPRPFHLPRP", -0.321],
  ["RRIRLRPPRLPRPRPRPGPNPRP", 0.0611],
  ["RRIRQRPPRLPRPRPRPCRGPRP", 0.104],
  ["RRIRYRPPRLPRPRPRPAKAPRP", 0.0797],
  ["RRIRRRPPRLPRPRPRPQSPPRP", 0.281],
  ["RRIRTRPPRLPRPRPRPIQNPRP", -0.147],
  ["RRIRLRPPRLPRPRPRPMRDPRP", 0.336],
  ["RRIRFRPPRLPRPRPRPWTQPRP", -0.959],
  ["RRIRARPPRLPRPRPRPSLCPRP", 0.276]
]}
